Molecular target: DGKα (Homo sapiens (Human), UniProt P23743)
Assay: biochemical
Type: biochemical
Settings: liposome (LIPGLO) assay; read-out: DGKα LIPGLO IC50
Reported Metric: pIC50
A value of pIC50 is the negative decimal logarithm of a concentration given in moles per litre.

{"Compound": "CC[C@@H]1CN(c2cc(=O)n(C)c3ccc(C#N)nc23)CC[C@@H]1Oc1cccc(C(C)(C)C)c1 [Example 165]", "Reported Metric": "pIC50", "Endpoint Result": 7.02}
{"Compound": "C[C@@H]1CN(c2cc(=O)n(C)c3ccc(C#N)nc23)CC[C@H]1Oc1ccc(F)cc1C(F)(F)F [Example 116]", "Reported Metric": "pIC50", "Endpoint Result": 6.35}
{"Compound": "Cn1c(=O)cc(N2CCC(Oc3ccnc(C(F)(F)F)n3)CC2)c2nc(C#N)ccc21", "Reported Metric": "pIC50", "Endpoint Result": 4.96}
{"Compound": "Cn1c(=O)c(C#N)c(N2CCC(Oc3ccc(OC(F)(F)F)c(Cl)c3)CC2)c2nc(Cl)ccc21", "Reported Metric": "pIC50", "Endpoint Result": 5.27}
{"Compound": "CC[C@@H]1CN(c2cc(=O)n(C)c3ccc(C#N)nc23)CC[C@H]1Oc1ccc(OC(C)(C)C)cc1 (single isomer, unassigned) [Example 159]", "Reported Metric": "pIC50", "Endpoint Result": 6.89}
{"Compound": "Cn1c(=O)cc(N2CCC(Oc3ccc(C(F)(F)F)cn3)CC2)c2nc(C#N)ccc21", "Reported Metric": "pIC50", "Endpoint Result": 5.52}

Now take the following compound into account.
The measured pIC50 associated with CC[C@@H]1CN(c2cc(=O)n(C)c3ccc(C#N)nc23)CC[C@H]1Oc1cccc(C(F)(F)F)c1 [Example 140] reads 6.89

====

Entries and their measured pEC50 follow.
Tested on: Human venous whole blood (IFN-γ)
Test: Human whole blood IFN-γ assay
Assay type: cell-based
Settings: Homo sapiens, 24 h, human whole blood, anti-CD3 plus anti-CD28, 24 hours; read-out: INFg Whole Blood Normalized Agonist EC50
A value of pEC50 is the negative decimal logarithm of a concentration given in moles per litre.

Consider the reported pEC50 for these compounds:
{"Compound": "CC[C@@H]1CN(c2cc(=O)n(C)c3ccc(C#N)nc23)CC[C@H]1Oc1cccc(C2CC2)c1 (racemic) [Example 155]", "pEC50": 4.70}
{"Compound": "Cc1nccc(OC2CCN(c3cc(=O)n(C)c4ccc(C#N)nc34)CC2)n1 [Example 72]", "pEC50": 4.70}

Now take the following compound into account.
The measured pEC50 associated with CCc1ccc(O[C@@H]2CCN(c3cc(=O)n(C)c4ccc(C#N)nc34)C[C@H]2C)cc1 (racemic) [Example 110] reads 5.52

====

Target: human DGKζ (Homo sapiens (Human), UniProt Q13574)
Sequence (Q13574 whole entry, looked up): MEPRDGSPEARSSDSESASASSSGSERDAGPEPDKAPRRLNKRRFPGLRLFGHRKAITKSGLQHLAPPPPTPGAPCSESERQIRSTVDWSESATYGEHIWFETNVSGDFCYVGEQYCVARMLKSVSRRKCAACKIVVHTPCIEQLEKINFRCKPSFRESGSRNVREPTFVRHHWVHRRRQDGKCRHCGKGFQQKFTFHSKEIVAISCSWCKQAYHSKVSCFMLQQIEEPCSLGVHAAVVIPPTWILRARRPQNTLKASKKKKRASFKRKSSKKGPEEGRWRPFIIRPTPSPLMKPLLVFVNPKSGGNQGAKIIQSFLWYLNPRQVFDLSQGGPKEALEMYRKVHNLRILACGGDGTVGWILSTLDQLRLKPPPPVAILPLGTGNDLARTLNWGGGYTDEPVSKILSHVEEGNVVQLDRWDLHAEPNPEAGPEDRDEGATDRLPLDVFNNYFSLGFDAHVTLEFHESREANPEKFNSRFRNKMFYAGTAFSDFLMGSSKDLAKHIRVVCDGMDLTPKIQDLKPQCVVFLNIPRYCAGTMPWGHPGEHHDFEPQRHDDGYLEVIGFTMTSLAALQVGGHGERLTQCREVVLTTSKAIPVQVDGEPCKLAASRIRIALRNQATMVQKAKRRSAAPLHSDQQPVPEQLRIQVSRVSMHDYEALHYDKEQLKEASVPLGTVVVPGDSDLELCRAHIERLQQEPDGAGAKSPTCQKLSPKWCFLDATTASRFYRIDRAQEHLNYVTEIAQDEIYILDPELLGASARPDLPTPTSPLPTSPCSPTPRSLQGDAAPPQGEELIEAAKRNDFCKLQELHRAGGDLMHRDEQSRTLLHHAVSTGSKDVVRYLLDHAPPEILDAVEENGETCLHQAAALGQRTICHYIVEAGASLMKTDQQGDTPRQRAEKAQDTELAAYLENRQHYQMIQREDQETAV
Assay: biochemical
Format: biochemical
Settings: Table A; liposome (LIPGLO) assay; read-out: DGKζ
Entries and their measured pIC50 follow.
A value of pIC50 is the negative decimal logarithm of a concentration given in moles per litre.

{"Molecule": "CO[C@H]1CN(c2cc(=O)n(C)c3ccc(C#N)nc23)CC[C@@H]1Oc1ccc(OC(C)C)cn1 (single isomer, unassigned) [Example 269]", "Experimental Target": "human DGKζ (Homo sapiens (Human), UniProt Q13574)", "Reported Metric": "pIC50", "Endpoint Result": 5.82}

The measured pIC50 associated with CC(C)Oc1ccc(OC2C[C@@H](C)N(c3nc(=O)n(C)c4ccc(C#N)nc34)C[C@H]2C)nc1 (single isomer, unassigned) [Example 244] reads 6.04

The measured pIC50 associated with CC1CN(c2cc(=O)n(C)c3ccc(C#N)nc23)CCC1N(C)C(=O)c1ccc(F)cc1 (single isomer, unassigned) [Example 287] reads 5.13

====

Target: Human DGKα(9-727) (Homo sapiens (Human), UniProt P23743)
Sequence (P23743 whole entry, looked up): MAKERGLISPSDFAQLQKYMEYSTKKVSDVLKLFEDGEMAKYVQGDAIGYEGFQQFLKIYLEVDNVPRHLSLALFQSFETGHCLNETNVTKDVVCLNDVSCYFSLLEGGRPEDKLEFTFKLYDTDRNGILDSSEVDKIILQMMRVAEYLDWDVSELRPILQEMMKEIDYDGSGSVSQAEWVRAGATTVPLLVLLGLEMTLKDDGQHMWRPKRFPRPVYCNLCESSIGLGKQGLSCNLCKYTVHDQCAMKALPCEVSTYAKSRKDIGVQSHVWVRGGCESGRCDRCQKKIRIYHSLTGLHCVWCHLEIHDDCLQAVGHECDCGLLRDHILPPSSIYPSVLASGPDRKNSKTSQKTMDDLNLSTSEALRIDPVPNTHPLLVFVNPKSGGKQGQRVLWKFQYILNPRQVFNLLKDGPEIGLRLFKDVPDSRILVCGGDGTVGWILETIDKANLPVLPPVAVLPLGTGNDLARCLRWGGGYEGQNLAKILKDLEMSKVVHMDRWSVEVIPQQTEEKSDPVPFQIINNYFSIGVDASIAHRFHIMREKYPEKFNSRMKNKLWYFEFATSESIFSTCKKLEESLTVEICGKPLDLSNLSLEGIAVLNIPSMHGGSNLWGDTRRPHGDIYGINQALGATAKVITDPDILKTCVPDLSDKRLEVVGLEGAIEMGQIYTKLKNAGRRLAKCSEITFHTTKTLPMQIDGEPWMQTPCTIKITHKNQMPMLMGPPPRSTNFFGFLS
Test: biochemical
Details: liposome (LIPGLO) assay; Table A; read-out: DGKα LIPGLO IC50
Reported Metric: pIC50
A value of pIC50 is the negative decimal logarithm of a concentration given in moles per litre.

Consider the reported pIC50 for these compounds:
{"Compound": "Cn1c(=O)cc(N2CC[C@@H](Oc3cccc(C(F)(F)F)c3)[C@H](OCC3CC3)C2)c2nc(C#N)ccc21 [Example 387]", "pIC50": 5.68}
{"Compound": "CCO[C@@H]1CN(c2nc(=O)n(C)c3ccc(C#N)nc23)CC[C@H]1Oc1ccc(OC(C)C)cn1 (relative stereo) [Example 401]", "pIC50": 6.08}

Now take the following compound into account.
The measured pIC50 associated with CCO[C@H]1CN(c2cc(=O)n(C)c3ccc(C#N)nc23)CC[C@@H]1OCc1ccc(OC(C)C)cn1 (single isomer, unassigned) [Example 384] reads 6.09

====

Biological target: human DGKζ (Homo sapiens (Human))
Test: biochemical
Format: biochemical
Conditions: liposome (LIPGLO) assay; read-out: DGKζ LIPGLO IC50
Reported Metric: pIC50
A value of pIC50 is the negative decimal logarithm of a concentration given in moles per litre.

Consider the reported pIC50 for these molecules:
{"Molecule": "Cn1c(=O)cc(N2CCC(Oc3ccc(OC(C)(C)C)cc3)CC2)c2nc(C#N)ccc21", "pIC50": 5.48}
{"Molecule": "CC[C@@H]1CN(c2cc(=O)n(C)c3ccc(C#N)nc23)CC[C@H]1Oc1cccc(C(C)C)c1 (racemic) [Example 137]", "pIC50": 6.04}
{"Molecule": "Cc1ccc(O[C@@H]2CCN(c3cc(=O)n(C)c4ccc(C#N)nc34)C[C@H]2C)cc1 (single isomer, unassigned) [Example 121]", "pIC50": 5.00}

Now take the following molecule into account.
Form field, pIC50 with human DGKζ (Homo sapiens (Human)), item `CCCCc1ccc(OC2CCN(c3cc(=O)n(C)c4ccc(C#N)nc34)CC2)cc1` : 4.89

====

Biological target: Human DGKα(9-727) (Homo sapiens (Human))
Test: biochemical
Conditions: Table A; liposome (LIPGLO) assay; read-out: DGKα
Reported Metric: pIC50
A value of pIC50 is the negative decimal logarithm of a concentration given in moles per litre.

Consider the reported pIC50 for these molecules:
{"Molecule": "CC(C)Oc1ccc(O[C@H]2CCN(c3cc(=O)n(C)c4ccc(C#N)nc34)C[C@@H]2O)nc1 (single isomer, unassigned) [Example 267]", "Experimental Target": "Human DGKα(9-727) (Homo sapiens (Human))", "pIC50": 6.59}
{"Molecule": "COc1ccc(NC2C[C@H](C)N(c3cc(=O)n(C)c4ccc(C#N)nc34)C[C@H]2C)nc1 (single isomer, unassigned) [Example 280]", "Experimental Target": "Human DGKα(9-727) (Homo sapiens (Human))", "pIC50": 6.42}
{"Molecule": "Cn1c(=O)cc(N2CC[C@H](Oc3cccc(C(F)(F)F)c3)[C@@H](O)C2)c2nc(C#N)ccc21 (racemic)", "Experimental Target": "Human DGKα(9-727) (Homo sapiens (Human))", "pIC50": 5.96}

Now take the following molecule into account.
The measured pIC50 associated with CC[C@@H]1CN(c2cc(=O)n(C)c3ccc(C#N)nc23)CC[C@H]1Oc1cccc(C(C)(C)C)c1 (single isomer, unassigned) reads 8.27

====

System: human venous whole blood, CD8 positive population (pERK)
Experiment: DGK human whole blood pERK assay
Type: cell-based
Conditions: Homo sapiens, CD8 positive, read-out: DGK HWB, human whole blood pERK
Reported Metric: pEC50
A value of pEC50 is the negative decimal logarithm of a concentration given in moles per litre.

Consider the reported pEC50 for these compounds:
{"Compound": "CC(C)Oc1ccc(OC2C[C@@H](C)N(c3nc(=O)n(C)c4ccc(C#N)nc34)C[C@@H]2C)nc1 (stereo partly drawn)", "Endpoint Result": 6.13}
{"Compound": "CC[C@@H]1CN(c2cc(=O)n(C)c3ccc(C#N)nc23)[C@H](C)C[C@@H]1Oc1ccc(OC(C)C)cn1", "Endpoint Result": 6.04}

The measured pEC50 associated with `CC[C@@H]1CN(c2nc(=O)n(C)c3ccc(C#N)nc23)[C@H](C)C[C@@H]1Oc1ccc(OC(C)C)cn1` reads 6.14

====

Test system: Human venous whole blood (IFN-γ)
Test: Human whole blood IFN-γ assay
Assay type: cell-based
Settings: Homo sapiens, 24 h, human whole blood, anti-CD3 plus anti-CD28, 24 hours; read-out: INFg Whole Blood Normalized Agonist EC50
Threshold-based label: EC50 under 3 µM gives 1, EC50 not under 3 µM gives -1.

Q: Confirm or reject: EC50 of CC[C@@H]1CN(c2cc(=O)n(C)c3ccc(C#N)nc23)CC[C@H]1Oc1cccc(C2CC2)c1 [Example 156] lies strictly below 3 µM
A: 1

Q: Confirm or reject: EC50 of `Cn1c(=O)c(C#N)c(N2CCC(Oc3ccccc3C(F)(F)F)CC2)c2nc(Cl)ccc21` lies strictly below 3 µM
A: -1

Q: Confirm or reject: EC50 of C[C@@H]1CN(c2cc(=O)n(C)c3ccc(C#N)nc23)CC[C@H]1Oc1ccc(C2CCCCC2)cc1 (racemic) lies strictly below 3 µM
A: 1

Q: Confirm or reject: EC50 of `Cn1c(=O)cc(N2CCC(Oc3ccc(Cl)cn3)CC2)c2nc(C#N)ccc21` lies strictly below 3 µM
A: 1

Q: Confirm or reject: EC50 of `COc1cc(OC2CCN(c3cc(=O)n(C)c4ccc(C#N)nc34)CC2)nc2cc(Cl)ccc12` lies strictly below 3 µM
A: -1

Cited source for all entries: patent US11964973B2
